# EXPERIMENT_DESCRIPTION: Dog pharmacokinetic study (intravenous and oral)
# Format: in vivo
# CONDITIONS_USED: plasma, Beagle dogs, oral, 5 mg/kg, solution
AUC listing for selected compounds.

CHEMICAL_STRING | AUC, ng·h/mL
CC[C@@H](C#N)NC(=O)c1ccc(-c2nc(Nc3cnn(C4CCNCC4)c3)ncc2Cl)cc1 | 29.9
Cc1cnc(Nc2cnn(C3CCN(C(=O)CO)CC3)c2)nc1-c1ccc(C(=O)N[C@@H](C)C#N)cc1 | 93.6
CC[C@@H](C#N)NC(=O)c1ccc(-c2nc(Nc3cnn(C4CCN(C)CC4)c3)ncc2C)cc1 | 527
C[C@@H](C#N)NC(=O)c1ccc(-c2nc(Nc3cnn(C4CCNCC4)c3)ncc2Cl)cc1 | 27.9

----------
# TARGET_SYSTEM: JAK1 (Homo sapiens, UniProt P23458)
# Construct: purchased Carna Biosciences
# Sequence (P23458 whole entry): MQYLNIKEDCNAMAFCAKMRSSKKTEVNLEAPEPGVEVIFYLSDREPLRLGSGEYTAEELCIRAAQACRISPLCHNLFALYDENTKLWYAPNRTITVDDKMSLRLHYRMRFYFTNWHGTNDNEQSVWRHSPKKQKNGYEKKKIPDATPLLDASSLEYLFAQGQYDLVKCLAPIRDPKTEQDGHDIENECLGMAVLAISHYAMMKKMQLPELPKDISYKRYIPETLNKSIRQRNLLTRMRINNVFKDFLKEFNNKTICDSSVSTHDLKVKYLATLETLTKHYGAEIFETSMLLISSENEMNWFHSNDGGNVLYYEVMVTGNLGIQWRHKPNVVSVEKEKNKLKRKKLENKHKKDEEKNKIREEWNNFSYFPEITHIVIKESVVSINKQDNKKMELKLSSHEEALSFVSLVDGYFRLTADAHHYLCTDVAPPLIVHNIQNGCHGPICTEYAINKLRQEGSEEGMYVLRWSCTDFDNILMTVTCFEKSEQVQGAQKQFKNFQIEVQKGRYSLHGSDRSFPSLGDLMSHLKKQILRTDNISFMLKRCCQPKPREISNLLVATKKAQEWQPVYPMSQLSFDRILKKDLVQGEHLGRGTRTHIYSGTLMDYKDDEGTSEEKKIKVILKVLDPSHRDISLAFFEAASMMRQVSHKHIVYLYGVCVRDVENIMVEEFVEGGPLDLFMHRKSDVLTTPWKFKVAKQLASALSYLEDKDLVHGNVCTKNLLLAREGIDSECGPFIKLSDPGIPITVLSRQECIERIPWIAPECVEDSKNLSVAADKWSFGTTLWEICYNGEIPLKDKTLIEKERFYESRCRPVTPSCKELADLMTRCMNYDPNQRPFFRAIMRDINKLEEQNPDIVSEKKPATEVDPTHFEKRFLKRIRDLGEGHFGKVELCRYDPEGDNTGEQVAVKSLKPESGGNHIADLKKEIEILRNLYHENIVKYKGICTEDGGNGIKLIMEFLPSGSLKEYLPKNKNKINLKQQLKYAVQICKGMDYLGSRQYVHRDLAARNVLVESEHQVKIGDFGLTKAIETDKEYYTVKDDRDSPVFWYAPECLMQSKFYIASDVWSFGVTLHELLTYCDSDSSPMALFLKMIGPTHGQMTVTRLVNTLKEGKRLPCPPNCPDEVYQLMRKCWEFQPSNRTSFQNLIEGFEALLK
# EXPERIMENT_DESCRIPTION: JAK1 microfluidic kinase assay (Caliper EZ Reader II, FAM labeled peptide substrate)
# Assay type: biochemical
# CONDITIONS_USED: IC50 JAK1 (5 nM) (1 m MATP), JAK1 5 nM, 1 mM ATP
# Method: Compounds were tested against JAK1, JAK2, JAK2V617F and TYK2. Assay Formats: JAK activity was determined in the reaction buffer 50 mM HEPES, 0.01% Brij35, 10 mM MgCl2, 2 mM DTT by a microfluidic assay. The phosphorylation of a FAM labeled peptide substrate was monitored in the Caliper EZ Reader II (Perkin Elmer). The assay condition for each batch of enzyme (Carna Biosciences) was optimized to obtain 10% conversion rate of peptide substrate. […]
OBSERVATION_TYPE: IC50 (µM)

CHEMICAL_STRING | RESULT_VALUE
Cc1cnc(Nc2cnn(C3CCN(C)CC3)c2)nc1-c1ccc(C(=O)NCC#N)cc1 | 0.00713
Cc1cnc(Nc2cnn([C@H]3CC[C@@H](C#N)CC3)c2)nc1-c1ccc(C(=O)N[C@@H](C)C#N)cc1 | 0.015
Cc1cnc(Nc2cnn(CC#N)c2)nc1-c1ccc(C(=O)N[C@@H](C)C#N)cc1 | 0.0191
Cc1cnc(Nc2cnn(C3CCN(C)CC3)c2)nc1-c1ccc(C(=O)N[C@H](C#N)C2CC2)cc1 | 0.00085

----------
pIC50 listing for selected compounds.
# TARGET_SYSTEM: JAK2 (Homo sapiens, UniProt O60674)
# Construct: purchased Carna Biosciences
# Sequence (O60674 whole entry): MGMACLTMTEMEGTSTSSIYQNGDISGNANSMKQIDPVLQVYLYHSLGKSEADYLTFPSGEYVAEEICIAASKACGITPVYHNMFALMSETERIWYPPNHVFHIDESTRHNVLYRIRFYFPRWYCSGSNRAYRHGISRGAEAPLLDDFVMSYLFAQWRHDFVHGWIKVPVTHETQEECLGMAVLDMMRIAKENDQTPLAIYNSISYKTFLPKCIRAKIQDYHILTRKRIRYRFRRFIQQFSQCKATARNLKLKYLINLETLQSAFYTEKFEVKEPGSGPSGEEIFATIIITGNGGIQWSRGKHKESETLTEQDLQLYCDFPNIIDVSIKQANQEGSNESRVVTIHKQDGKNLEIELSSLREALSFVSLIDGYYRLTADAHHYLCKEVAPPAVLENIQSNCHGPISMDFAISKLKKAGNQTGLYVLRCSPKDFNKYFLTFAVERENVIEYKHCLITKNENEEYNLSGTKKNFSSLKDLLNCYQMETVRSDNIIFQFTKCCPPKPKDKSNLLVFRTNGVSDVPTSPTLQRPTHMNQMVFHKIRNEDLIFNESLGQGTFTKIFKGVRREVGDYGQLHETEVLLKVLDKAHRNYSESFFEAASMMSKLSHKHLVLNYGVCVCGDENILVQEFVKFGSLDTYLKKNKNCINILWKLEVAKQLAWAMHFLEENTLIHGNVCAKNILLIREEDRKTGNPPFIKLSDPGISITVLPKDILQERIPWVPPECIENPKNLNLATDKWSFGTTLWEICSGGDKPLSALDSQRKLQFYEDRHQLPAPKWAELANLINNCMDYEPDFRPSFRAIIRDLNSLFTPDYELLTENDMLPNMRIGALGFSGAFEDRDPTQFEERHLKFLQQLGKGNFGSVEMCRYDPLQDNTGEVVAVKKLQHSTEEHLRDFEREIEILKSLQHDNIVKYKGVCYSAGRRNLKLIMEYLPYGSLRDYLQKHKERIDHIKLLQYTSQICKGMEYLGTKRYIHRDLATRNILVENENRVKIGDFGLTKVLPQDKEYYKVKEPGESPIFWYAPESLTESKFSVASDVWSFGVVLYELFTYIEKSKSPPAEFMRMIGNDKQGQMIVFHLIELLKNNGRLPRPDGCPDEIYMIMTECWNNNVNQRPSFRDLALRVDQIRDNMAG
# EXPERIMENT_DESCRIPTION: JAK2 microfluidic kinase assay (Caliper EZ Reader II, FAM labeled peptide substrate)
# Format: biochemical
# CONDITIONS_USED: IC50 JAK2 ([…]) (Km ATP), Km ATP
# Experimental: Compounds were tested against JAK1, JAK2, JAK2V617F and TYK2. Assay Formats: JAK activity was determined in the reaction buffer 50 mM HEPES, 0.01% Brij35, 10 mM MgCl2, 2 mM DTT by a microfluidic assay. The phosphorylation of a FAM labeled peptide substrate was monitored in the Caliper EZ Reader II (Perkin Elmer). The assay condition for each batch of enzyme (Carna Biosciences) was optimized to obtain 10% conversion rate of peptide substrate. […]
pIC50: −log10 of the molar value. Where a name gives a salt, the structure may show the parent alone.

COMPOUND | RELATION_SIGN | pIC50
Cc1cnc(Nc2cnn(C3CCOCC3)c2)nc1-c1ccc(C(=O)N2CC(C#N)C2)cc1 | = | 8.68
C[C@@H](C#N)NC(=O)c1ccc(-c2ccnc(Nc3cnn(C4CC4)c3)n2)cc1F | = | 7.90
Cc1cnc(Nc2cnn(C3CCNCC3)c2)nc1-c1ccc(C(=O)NCC(N)=O)cc1 [Example 82, hydrochloride] | = | 8.12
Cc1cnc(Nc2cnn(C3CCN(C(=O)C4CC4)CC3)c2)nc1-c1ccc(C(=O)NCC#N)cc1 | > | 9.60
Cc1cnc(Nc2cnn(C3CC3)c2)nc1-c1ccc(C(=O)NCC2(C#N)CC2)cc1 | = | 8.86
Cc1cnc(Nc2cnn(C3CCN(CC(F)(F)F)CC3)c2)nc1-c1ccc(C(=O)NCC#N)cc1 | = | 9.37
N#CC1CN(C(=O)c2ccc(-c3ccnc(Nc4cnn(C5CC5)c4)n3)cc2F)C1 | = | 7.39
Cc1cnc(Nc2cnn(C3CC(C#N)C3)c2)nc1-c1ccc(C(=O)NCC#N)cc1 (centres unmarked) | = | 9.60

----------
# TARGET_SYSTEM: JAK2 (Homo sapiens)
# Construct: purchased Carna Biosciences
# EXPERIMENT_DESCRIPTION: JAK2 microfluidic kinase assay (Caliper EZ Reader II, FAM labeled peptide substrate)
# Format: biochemical
# CONDITIONS_USED: IC50 JAK2 ([…]) (Km ATP), Km ATP

COMPOUND | TARGET_SYSTEM | IC50 (nM)
Cc1cnc(Nc2cnn(C)c2)nc1-c1ccc(C(=O)N[C@H](C)C#N)cc1 [Example 101] | JAK2 (Homo sapiens) | 4.5
Cc1cnc(Nc2cnn(C)c2)nc1-c1ccc(C(=O)NC(C)C#N)cc1 (stereo not drawn) [Example 17] | JAK2 (Homo sapiens) | 5.15
CNC(=O)c1ccc(-c2nc(Nc3cnn(C)c3)ncc2C)cc1 [Example 10] | JAK2 (Homo sapiens) | 30
Cc1cnc(Nc2cnn(C3CC3)c2)nc1-c1ccc(C(=O)N2CC(C#N)C2)c(F)c1 [Example 140] | JAK2 (Homo sapiens) | 6.4
Cc1cnc(Nc2cnn(C)c2)nc1-c1ccc(C(=O)NCC2(C#N)CC2)cc1 [Example 12] | JAK2 (Homo sapiens) | 3.2
Cc1cnc(Nc2cnn(C)c2)nc1-c1ccc(C(=O)N2CC(C#N)C2)c(F)c1 [Example 103] | JAK2 (Homo sapiens) | 12
Cc1cnc(Nc2cnn(C)c2)nc1-c1ccc(C(=O)N2CC(C#N)C2)cc1 [Example 15] | JAK2 (Homo sapiens) | 8.6
Cc1cnc(Nc2cnn(C)c2)nc1-c1ccc(C(=O)NCC#N)c(F)c1 [Example 100] | JAK2 (Homo sapiens) | 4.34
N#CCNC(=O)c1ccc(-c2nc(Nc3cnn(CC(F)F)c3)ncc2F)cc1F [Example 131] | JAK2 (Homo sapiens) | 26.2

----------
# TARGET_SYSTEM: JAK1 (Homo sapiens, UniProt P23458)
# Construct: purchased Carna Biosciences
# EXPERIMENT_DESCRIPTION: JAK1 microfluidic kinase assay (Caliper EZ Reader II, FAM labeled peptide substrate)
# Assay type: biochemical
# CONDITIONS_USED: IC50 JAK1 (5 nM) (1 m MATP), JAK1 5 nM, 1 mM ATP
# Procedure: Compounds were tested against JAK1, JAK2, JAK2V617F and TYK2. Assay Formats: JAK activity was determined in the reaction buffer 50 mM HEPES, 0.01% Brij35, 10 mM MgCl2, 2 mM DTT by a microfluidic assay. The phosphorylation of a FAM labeled peptide substrate was monitored in the Caliper EZ Reader II (Perkin Elmer). The assay condition for each batch of enzyme (Carna Biosciences) was optimized to obtain 10% conversion rate of peptide substrate. […]
OBSERVATION_TYPE: log10 of IC50 (log10 of the value in µM)

COMPOUND | TARGET_SYSTEM | log10 of IC50
Cc1cnc(Nc2cnn([C@H]3CC[C@H](C#N)CC3)c2)nc1-c1ccc(C(=O)N[C@@H](C)C#N)cc1 | JAK1 (Homo sapiens, UniProt P23458) | -1.92
COCCn1cc(Nc2ncc(Cl)c(-c3ccc(C(=O)N[C@@H](C)C#N)cc3)n2)cn1 | JAK1 (Homo sapiens, UniProt P23458) | -1.87
Cc1cnc(Nc2cnn(CC#N)c2)nc1-c1ccc(C(=O)NCC#N)cc1 | JAK1 (Homo sapiens, UniProt P23458) | -2.06
C[C@@H](C#N)NC(=O)c1ccc(-c2nc(Nc3cnn(C4CCN(C)CC4)c3)ncc2Cl)cc1 | JAK1 (Homo sapiens, UniProt P23458) | -1.95
C[C@@H](C#N)NC(=O)c1ccc(-c2nc(Nc3cnn(C4CC4)c3)ncc2Cl)cc1F | JAK1 (Homo sapiens, UniProt P23458) | -1.43
Cc1cnc(Nc2cnn(C3CCN(C(=O)C4CC4)CC3)c2)nc1-c1ccc(C(=O)NCC#N)nc1 | JAK1 (Homo sapiens, UniProt P23458) | -1.63
Cc1cnc(Nc2cnn(C3CCOCC3)c2)nc1-c1ccc(C(=O)NCC(C)(C)C#N)cc1 | JAK1 (Homo sapiens, UniProt P23458) | -1.72
CO[C@H]1CC[C@H](n2cc(Nc3ncc(C)c(-c4ccc(C(=O)N[C@@H](C)C#N)cc4)n3)cn2)CC1 | JAK1 (Homo sapiens, UniProt P23458) | -1.92
Cc1cnc(Nc2cnn(C3CCC(F)(F)CC3)c2)nc1-c1ccc(C(=O)N[C@@H](C)C#N)cc1 | JAK1 (Homo sapiens, UniProt P23458) | -1.95
Cc1cnc(Nc2cnn(C3CCOCC3)c2)nc1-c1ccc(C(=O)NCC#N)cc1 | JAK1 (Homo sapiens, UniProt P23458) | -1.85
C[C@@H](C#N)NC(=O)c1ccc(-c2nc(Nc3cnn(C4CCN(C)CC4)c3)ncc2F)cc1 | JAK1 (Homo sapiens, UniProt P23458) | -1.04
C[C@@H](C#N)NC(=O)c1ccc(-c2nc(Nc3cnn(C4CCNCC4)c3)ncc2Cl)cc1 | JAK1 (Homo sapiens, UniProt P23458) | -2.23
N#CC1(CNC(=O)c2ccc(-c3nc(Nc4cnn(C5CCOCC5)c4)ncc3Cl)cc2)CC1 | JAK1 (Homo sapiens, UniProt P23458) | -1.42
C[C@@H](C#N)NC(=O)c1ccc(-c2nc(Nc3cnn(CC#N)c3)ncc2Cl)cc1 | JAK1 (Homo sapiens, UniProt P23458) | -2.26
N#CCNC(=O)c1ccc(-c2nc(Nc3cnn(C4CC4)c3)ncc2C(F)F)cc1 | JAK1 (Homo sapiens, UniProt P23458) | -0.82
COC[C@@H](C#N)NC(=O)c1ccc(-c2nc(Nc3cnn(C4CC4)c3)ncc2C)cc1 | JAK1 (Homo sapiens, UniProt P23458) | -2.24
CC[C@@H](C#N)NC(=O)c1ccc(-c2nc(Nc3cnn(CC#N)c3)ncc2C)cc1 | JAK1 (Homo sapiens, UniProt P23458) | -2.36
Cc1cnc(Nc2cnn(C3CCN(C(=O)C4(C)CC4)CC3)c2)nc1-c1ccc(C(=O)NCC#N)cc1 | JAK1 (Homo sapiens, UniProt P23458) | -1.89
Cc1cnc(Nc2cnn(C3CCN(C(=O)C4(C(F)(F)F)CC4)CC3)c2)nc1-c1ccc(C(=O)NCC#N)cc1 | JAK1 (Homo sapiens, UniProt P23458) | -1.68
Cc1cnc(Nc2cnn(C3CC(F)(F)C3)c2)nc1-c1ccc(C(=O)NCC#N)cc1 | JAK1 (Homo sapiens, UniProt P23458) | -0.55
Cc1cnc(Nc2cnn(C3C[C@@H](C)N[C@H](C)C3)c2)nc1-c1ccc(C(=O)N[C@@H](C)C#N)cc1 (stereo partly shown) | JAK1 (Homo sapiens, UniProt P23458) | -1.85
C[C@H](C#N)NC(=O)c1ccc(-c2nc(Nc3cnn(C4CCN(C)CC4)c3)ncc2Cl)cc1 | JAK1 (Homo sapiens, UniProt P23458) | -1.46
Cc1cnc(Nc2cnn(C3CCOCC3)c2)nc1-c1ccc(C(=O)N[C@@H](C)C(F)(F)F)cc1 | JAK1 (Homo sapiens, UniProt P23458) | -1.89
Cc1cnc(Nc2cnn(C3CCOCC3)c2)nc1-c1ccc(C(=O)NCC(F)(F)F)cc1 | JAK1 (Homo sapiens, UniProt P23458) | -2.13
Cc1cnc(Nc2cnn(C3CCNCC3)c2)nc1-c1ccc(C(=O)NCC#N)cc1 | JAK1 (Homo sapiens, UniProt P23458) | -2.11
N#CCNC(=O)c1ccc(-c2nc(Nc3cnn(C4CCOCC4)c3)ncc2C(F)(F)F)cc1 | JAK1 (Homo sapiens, UniProt P23458) | -0.63
CC[C@@H](C#N)NC(=O)c1ccc(-c2nc(Nc3cnn(C4CCOCC4)c3)ncc2Cl)cc1 | JAK1 (Homo sapiens, UniProt P23458) | -2.30
C[C@@H](C#N)NC(=O)c1ccc(-c2nc(Nc3cnn(C4CCOCC4)c3)ncc2Cl)cc1 | JAK1 (Homo sapiens, UniProt P23458) | -1.73
Cc1cnc(Nc2cnn(C3CCN(C)CC3)c2)nc1-c1ccc(C(=O)N[C@H](C#N)C(C)C)cc1 | JAK1 (Homo sapiens, UniProt P23458) | -2.89
C[C@@H](C#N)NC(=O)c1ccc(-c2nc(Nc3cnn(C4CC4)c3)ncc2Cl)cn1 | JAK1 (Homo sapiens, UniProt P23458) | -1.17
Cc1cnc(Nc2cnn([C@@H]3C[C@@H](C)N[C@@H](C)C3)c2)nc1-c1ccc(C(=O)N[C@@H](C)C#N)cc1 | JAK1 (Homo sapiens, UniProt P23458) | -1.09
